- assay: Fluorescence titration of labeled ParM with ATP
- Type: binding
- conditions.used: Table 2
measure.name: Kd ratio ATP/ADP
Answers are plain numbers.

So, T175A: MDCC-ParM (His6/I27C/T175A/C287A) (conjugate, UniProt P11904 1-320, looked up, variant I27C T175A C287A, MDCC label; His6 tag) Plasmid segregation protein …: MLVFIDDGSTNIKLQWQESDGTIKQHCSPNSFKREWAVSFGDKKVFNYTLNGEQYSFDPISPDAVVTTNIAWQYSDVNVVAVHHALLTSGLPVSEVDIVCTLPLTEYYDRNNQPNTENIERKKANFRKKITLNGGDTFTIKDVKVMPESIPAGYEVLQELDELDSLLIIDLGGTALDISQVMGKLSGISKIYGDSSLGVSLVTSAVKDALSLARTKGSSYLADDIIIHRKDNNYLKQRINDENKISIVTEAMNEALRKLEQRVLNTLNEFSGYTHVMVIGGGAELIADAVKKHTQIRDERFFKTNNSQYDLVNGMYLIGN ? Its Kd ratio ATP/ADP was 168
